pKd listing for selected binders.
Biological target: T1, human CEACAM6, extracellular (mature form), R&D Systems 3934-CM (human, UniProt P40199 35-320)
T1 construct: used biotinylated in some assays; also called TPP-1436; Recombinant human CEACAM6
T1 sequence: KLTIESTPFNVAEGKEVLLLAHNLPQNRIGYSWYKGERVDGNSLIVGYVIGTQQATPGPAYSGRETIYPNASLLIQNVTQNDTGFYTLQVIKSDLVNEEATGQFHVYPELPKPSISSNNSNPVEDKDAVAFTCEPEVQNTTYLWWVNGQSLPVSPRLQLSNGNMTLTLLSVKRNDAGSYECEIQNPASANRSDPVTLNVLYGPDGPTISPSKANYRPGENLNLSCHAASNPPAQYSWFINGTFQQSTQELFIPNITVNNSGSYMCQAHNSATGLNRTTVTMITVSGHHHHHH
Assay: SPR, antibody captured, antigen as analyte
Conceptually, pKd converts a concentration in mol/L into minus its log10.

Please fill in: pKd reported for TPP-3820 (antibody, human IgG2, kappa, V domains shown, humanized from TPP-3187, human IgG2; also called 3187HU1-hIgG2Kappa) VH: QVTLRESGPALVKPTQTLTLTCTFSGFSLTTYGIGVGWIRQPPGKGLEWLAHIWWNDNKYYSTSLKTRLTISKDTSKNQVVLTMTNMDPVDTATYYCARISLPYFDYWGQGTLVTVSS VL: DIQLTQSPSFLSASVGDRVTITCKASQNVGTAVAWYQQKPGKAPKLLIYSASNRYTGVPSRFSGSGSGTEFTLTISSLQPEDFATYYCQQYNNYPLTFGGGTKVEIKR = 7.57

Further cases:
Please fill in: pKd reported for TPP-2971 (antibody, mouse IgG1, V domains shown, murine hybridoma antibody, mouse IgG1; also called 792.15H12C9) VH: QVTLKESGPGILQPSQTLSLTCSFSGFSLSTYGIGVGWIRQPSGKDLEWLAHIWWNDNKYYNTALKSRLTISKDTSNNQVFLKIASVDTADTATYYCARISLPYFDYWGQGTTLTVSS VL: DIVMTQSQKFMSTSVGDRVSITCKASQNVGTAVAWYQQKPGQSPKLLIYSASNRYTGVPDRFTGSGSGTDFTLTISNMQSEDLADYFCQQYSSYPLTFGAGTKLELK = 7.21

Please fill in: pKd reported for TPP-3707 (antibody, human IgG2, kappa, V domains shown, also called 090E-M007-A09-Mat2-hIgG2-hIgG2Kappa) VH: EVQLVESGGGLVQPGGSLRLSCAASGFTFSLYQMHWVRQAPGKGLEWVSWISFSGGNTGYADSVKGRFTISRDNSKNTLYLQMNSLRAEDTAVYYCARATGYSSPWYLDPWGQGTLVTVSS VL: DIQMTQSPSSLSASVGDRVTITCQASHEIDNYLNWYQQKPGKAPKLLIYDAYWSKTGVPSRFSGSGSGTDFTLTISSLQPEDIATYYCQGYDDLSVTFGGGTKVDIKR = 7.55
